- Test system: HEK293 (non-expressing parental cells)
- run-description: FACS cell surface binding
outcome-measure: FACS Cell Binding (Fold Above Background)
Give bare numbers, in Fold Above Background.

Guide cases for FACS Cell Binding (Fold Above Background), answers given:
H1H6953N: human IgG1 Fc form of H1M6953N; anti-PRLR; HCVR/LCVR SEQ ID NOs 274/282 (antibody, V domains shown, human IgG1 Fc) VH: EVQLLESGGGLVQPGGTLRLSCAASGFTFSAYAMSWVRQAPGKGLEWVSSINVRAGDTYYADSVKGRFTISRDNSKNTLFLLMNSLRAEDTAAYYCAKARYSSNWGFDFWGQGTLVTVSS VL: DIVMTQSPDSLTVSLGARTTINCQSSQTILHSSNNHNYLAWYQQKPGLPPKLLIYWSSTRESGVPDRFSGSGSGTDFTLTISSLQAEDVAIYYCQQYSNTPYTFGQGTKLEIN :: 2
H1H6765P: anti-PRLR antibody, human IgG1 Fc; HCVR/LCVR SEQ ID NOs 18/26 (antibody, V domains shown, human IgG1 Fc) VH: EVQLVESGGGVVRPGGSLRLSCVGSGFSFDDHGMNWVRQGPGKGLEWVSGFNWNGGSTNYAESVKGRFTISRDNARNSLFLQMNSLRAEDTALYYCVRGRSGWFNDAFDVWGPGTMVTVSS VL: EIVLTQSPGTLSLSPGERATLSCRASQTINSNYLAWYRQKPGQTPRLLIYGTSSRATGIPDRFSGSGSGTDFSLTISRLEPEDFAVFYCQQYAGLPTFGPGTKVDIK :: 2
H1H6804P: anti-PRLR antibody, human IgG1 Fc; HCVR/LCVR SEQ ID NOs 242/250 (antibody, V domains shown, human IgG1 Fc) VH: QVTLKESGPVLVKPTQTLSLTCTVSGFSLSDAGMGVSWIRQPPGKALEWLAHIFSNDGKSYSTSLKSRLTISKDTSKRQVVLTMTNMDPVDTATYYCARIRTGTYSLYLDYWGQGTLVTVSS VL: DIQMTQSPSSLSASVGDRVTITCRASQSINSYLNWYQQKPGKAPKLLLYFASSLQSGVPSRFSGSGSGTDFTLTISSLQPEDFASYYCQESYSTPWTFGQGTKVEIK :: 1

Memo: H1H6797P: anti-PRLR antibody, human IgG1 Fc; HCVR/LCVR SEQ ID NOs 178/186 (antibody, V domains shown, human IgG1 Fc) VH: EVQLVESGGGLVQPGGSLRLSCIVSGFTFSGSWMSWVRQLPGKGLEWVANIKEDGSDSYYVDSVEGRFTISRDNAKSSLYLQMNSLRVDDTAVYFCARARTVPLHYWGQGTLVTVSS VL: DIQMTQSPSTLSASVGDRVTITCRASQSINIWLAWYQQKPGKAPKLLIYRASYLESGVPSSFAGGGSGTEFTLTISSLQPDDFGTYYCQHYNSYPFTFGQGTKLEIK , reported FACS Cell Binding (Fold Above Background): 1
